assay: Drug uptake in Sprague-Dawley rat brain at 5 mg/kg, po measured after 4 hrs; format: ADME, organism-based; settings: read-out: Drug uptake
property-label: concentration at 4 h (nM)
The response must be a number in nM with no trailing unit.

Sample answers from the record:
1. CC(C)[C@@H]1c2nn(-c3cccc(S(C)(=O)=O)c3)cc2CN1c1ccnc(C(F)(F)F)n1 ... 2060
2. COc1cc(N2Cc3cn(-c4cccc(S(C)(=O)=O)c4)nc3[C@H]2C(C)(C)C)ccn1 ... 2280

Determine its reported concentration at 4 h: Cc1nc(N2Cc3cn(-c4cccc(S(C)(=O)=O)c4)nc3[C@H]2C(C)C)cc(C(F)(F)F)n1 825
